Here the recorded glycan array binding signal (z-score) is given for each entry.
Target: Neu5Gc(a2-8)Neu5Gc(a2-3)Gal(b1-4)GlcNAc(b1-3)Gal(b1-4)GlcNAc
Assay: glycan array binding signal (z-score within array); higher = stronger binding
Conditions: glycan notation: IUPAC condensed, linker removed
This is one part of a sample in which the strongest signals are shown more often than they occur.

| BINDER | glycan array binding signal (z-score) |
| --- | --- |
| MAA (Maackia amurensis), P0DKL3 (protein) MATSNSKPTQVLLATFLTFFFLLLNNVNSSDELSFTINNFVPNEADLLFQGEASVSSTGVLQLTRVENGQPQKYSVGRALYAAPVRIWDNTTGSVASFSTSFTFVVKAPNPDITSDGLAFYLAPPDSQIPSGSVSKYLGLFNNSNSDSSNQIVAVELDTYFAHSYDPWDPNYRHIGIDVNGIESIKTVQWDWINGGVAFATITYLAPNKTLIASLVYPSNQTTFSVAASVDLKEILPEWVRVGFSAATGYPTEVETHDVLSWSFTSTLEANCDAATENNVHIARYTA | 1.13 |
| AT3G44510(29) (Arabidopsis thaliana), F4J341 (protein) MEEHLQGRIKLHDGRYLAYKERGVPKDDAKFTIVLVHGFGSSKDMNFNVSQELVNEIGIYFVLYDRAGYGESDPNPKRSLKSEAYDVQELADGLEIGSRFYLIGISMGSYTVWSCLKHIPQRLAGVAMVAPVVNFRWPSIPKSLMPKDYRREVAKWSVWIANYFPGLLQWLVTQNMFSTTSMLEKNPVYFNDQDIEVLKHIKGFPMLTKEKLRERGVFGTLRSDFLVAFGDWDFDPADLPDPSLSGPEKGSSSVHIWQGYEDKVMPFQLQRCLCRKLPWIRYHEVPKGGHLIVHYDGICDAILKSLLLGEDLPMYKPKAVITEPA | 0.206 |
| LTL (Lotus tetragonolobus), P19664 (protein) VSFNYTEFKDDGSLILQGDAKIWTDGRLAMPTDPLVNNPKTTRSAGRALYATPVPIWDSATGNVASFVTSFNFLFVIRELKYTPTDGLVFFLAPVGTEIPSGSTGGFLGIFDGSNGFNQFVAVEFDSYHNIWDPKSLRSSHVGIDVNSIMSLKAVNWNRVSGSLEKATIIYDSQTNILSVVMTSQNGQITTIYGTIDLKTVLPEKVSVGFSATTGNPEREKHDIYSWSFTSTLKEPEEQA | -0.15 |
| Agalectin (Anopheles gambiae) (protein) MSNRPFTAKFPRYPENGDEVFIRGKLKDDAKSFSVNFCLPRPAQVAEHQTPPYIALHFKTIYDERDDTSRVVLNWKNLQWQQEEVLDNYWHVDRSQTFRVVFRLHEDCIKVFVNSVDHPPDYQFPVQLPLDQIESIELWDDVEHVEEISFRYDNGNSY | 0.981 |
| Dectin2 (Homo sapiens), Q6EIG7 (protein) MMQEQQPQSTEKRGWLSLRLWSVAGISIALLSACFIVSCVVTYHFTYGETGKRLSELHSYHSSLTCFSEGTKVPAWGCCPASWKSFGSSCYFISSEEKVWSKSEQNCVEMGAHLVVFNTEAEQNFIVQQLNESFSYFLGLSDPQGNNNWQWIDKTPYEKNVRFWHLGEPNHSAEQCASIVFWKPTGWGWNDVICETRRNSICEMNKIYL | -0.206 |
